Experiment: Plasma, vaginal secretion and vaginal tissue exposure after oral administration in mice
Type: in vivo
Settings: female, CD-1, mouse, plasma, po, oral gavage, BID 40/20 mg/kg (Day 1), read-out: AUC0-24 Plasma
outcome.measure: AUC(0-t) (ng·h/mL)

smiles.record: CC(C)[C@@H](C)[C@@]1(C)CC[C@]2(C)[C@H]3CC[C@@H]4[C@@]5(COC[C@]4(C)[C@@H](OC[C@](C)(N)C(C)(C)C)[C@H](n4ncnc4-c4ccncc4)C5)C3=CC[C@@]2(C)[C@@H]1C(=O)O
outcome.measure: AUC(0-t)
numeric.result: 46500

* * *

Assay: Plasma, vaginal secretion and vaginal tissue exposure after oral administration in mice
Assay type: in vivo
Conditions: female, CD-1, mouse, plasma, po, BID regimen, 10/5-80/40 mg/kg, read-out: AUC0-24 in plasma, range over doses
outcome.measure: AUC(0-t)

compound: CC(C)[C@@H](C)[C@@]1(C)CC[C@]2(C)[C@H]3CC[C@@H]4[C@@]5(COC[C@]4(C)[C@@H](OC[C@](C)(N)C(C)(C)C)[C@H](n4ncnc4-c4ccncc4)C5)C3=CC[C@@]2(C)[C@@H]1C(=O)O [SCY-078]
result: 7470 to 101000 ng·h/mL

* * *

Assay: Plasma, vaginal secretion and vaginal tissue exposure after oral administration in mice
Format: in vivo
Settings: female, CD-1, mouse, vaginal secretions, po, QD regimen, 10-80 mg/kg, read-out: AUC0-24 in vaginal secretions, range over doses

compound: CC(C)[C@@H](C)[C@@]1(C)CC[C@]2(C)[C@H]3CC[C@@H]4[C@@]5(COC[C@]4(C)[C@@H](OC[C@](C)(N)C(C)(C)C)[C@H](n4ncnc4-c4ccncc4)C5)C3=CC[C@@]2(C)[C@@H]1C(=O)O [SCY-078]
AUC(0-t): 1320 to 12300 ng·h/mL

* * *

Experiment: Plasma, vaginal secretion and vaginal tissue exposure after oral administration in mice
Format: in vivo
Settings: female, CD-1, mouse, plasma, po, oral gavage, BID 80/40 mg/kg (Day 1), read-out: AUC0-24 Plasma
Procedure: Female CD-1 mice (n=3/time point/dose group) were given SCY-078 via oral gavage for either one, two, or eight total doses ranging from 10 to 80 mg/kg, consisting of QD (once per day) and BID (twice per day) dose regimens, with and without loading doses, as follows: • QD (Day 1): 10, 20, 40, 80 mg/kg • BID (Day 1): 10/5, 20/10, 40/20, 80/40 mg/kg • BID repeat dose (Days 1-4): 10/5, 20/10 40/20, 80/40 mg/kg on Day 1; 5, […] mg/kg BID on Days 2 to 4 […]

smiles.record: CC(C)[C@@H](C)[C@@]1(C)CC[C@]2(C)[C@H]3CC[C@@H]4[C@@]5(COC[C@]4(C)[C@@H](OC[C@](C)(N)C(C)(C)C)[C@H](n4ncnc4-c4ccncc4)C5)C3=CC[C@@]2(C)[C@@H]1C(=O)O
unit.info: µg·h/mL
AUC(0-t): 101

* * *

Assay: clinical
Format: in vivo, human
Conditions: female, human, in vivo, po, 300 mg

compound: CC(C)[C@@H](C)[C@@]1(C)CC[C@]2(C)[C@H]3CC[C@@H]4[C@@]5(COC[C@]4(C)[C@@H](OC[C@](C)(N)C(C)(C)C)[C@H](n4ncnc4-c4ccncc4)C5)C3=CC[C@@]2(C)[C@@H]1C(=O)O [SCY-078]
AUC(0-t): 3 to 8 µM·h

* * *

Experiment: Plasma, vaginal secretion and vaginal tissue exposure after oral administration in mice
Type: in vivo
Details: female, CD-1, mouse, plasma, po, oral gavage, BID 20/10 mg/kg (Day 1), read-out: AUC0-24 Plasma
Protocol: Female CD-1 mice (n=3/time point/dose group) were given SCY-078 via oral gavage for either one, two, or eight total doses ranging from 10 to 80 mg/kg, consisting of QD (once per day) and BID (twice per day) dose regimens, with and without loading doses, as follows: • QD (Day 1): 10, 20, 40, 80 mg/kg • BID (Day 1): 10/5, 20/10, 40/20, 80/40 mg/kg • BID repeat dose (Days 1-4): 10/5, 20/10 40/20, 80/40 mg/kg on Day 1; 5, […] mg/kg BID on Days 2 to 4 […]
outcome.measure: AUC(0-t)

smiles.record: CC(C)[C@@H](C)[C@@]1(C)CC[C@]2(C)[C@H]3CC[C@@H]4[C@@]5(COC[C@]4(C)[C@@H](OC[C@](C)(N)C(C)(C)C)[C@H](n4ncnc4-c4ccncc4)C5)C3=CC[C@@]2(C)[C@@H]1C(=O)O
result: 16600 ng·h/mL

* * *

Experiment: Plasma, vaginal secretion and vaginal tissue exposure after oral administration in mice
Assay type: in vivo
Details: female, CD-1, mouse, vaginal secretion, po, oral gavage, BID 40/20 mg/kg (Day 1), read-out: AUC0-24 Vaginal Secretion

molecule: CC(C)[C@@H](C)[C@@]1(C)CC[C@]2(C)[C@H]3CC[C@@H]4[C@@]5(COC[C@]4(C)[C@@H](OC[C@](C)(N)C(C)(C)C)[C@H](n4ncnc4-c4ccncc4)C5)C3=CC[C@@]2(C)[C@@H]1C(=O)O [SCY-078]
AUC(0-t): 10600 ng·h/mL

* * *

Test: Plasma, vaginal secretion and vaginal tissue exposure after oral administration in mice
Assay type: in vivo
Settings: female, CD-1, mouse, plasma, po, oral gavage, BID repeat-dose 20/10 mg/kg (Days 1-4), read-out: AUC0-24 Plasma
outcome.measure: AUC(0-t) (ng·h/mL)

smiles.record: CC(C)[C@@H](C)[C@@]1(C)CC[C@]2(C)[C@H]3CC[C@@H]4[C@@]5(COC[C@]4(C)[C@@H](OC[C@](C)(N)C(C)(C)C)[C@H](n4ncnc4-c4ccncc4)C5)C3=CC[C@@]2(C)[C@@H]1C(=O)O
numeric.result: 14600

* * *

Assay: Plasma, vaginal secretion and vaginal tissue exposure after oral administration in mice
Type: in vivo
Conditions: female, CD-1, mouse, vaginal secretion, po, oral gavage, BID 10/5 mg/kg (Day 1), read-out: AUC0-24 Vaginal Secretion

compound: CC(C)[C@@H](C)[C@@]1(C)CC[C@]2(C)[C@H]3CC[C@@H]4[C@@]5(COC[C@]4(C)[C@@H](OC[C@](C)(N)C(C)(C)C)[C@H](n4ncnc4-c4ccncc4)C5)C3=CC[C@@]2(C)[C@@H]1C(=O)O [SCY-078]
AUC(0-t): 1550 ng·h/mL

* * *

Assay: Plasma, vaginal secretion and vaginal tissue exposure after oral administration in mice
Format: in vivo
Details: female, CD-1, mouse, plasma, po, oral gavage, BID repeat-dose 40/20 mg/kg (Days 1-4), read-out: AUC0-24 Plasma

compound: CC(C)[C@@H](C)[C@@]1(C)CC[C@]2(C)[C@H]3CC[C@@H]4[C@@]5(COC[C@]4(C)[C@@H](OC[C@](C)(N)C(C)(C)C)[C@H](n4ncnc4-c4ccncc4)C5)C3=CC[C@@]2(C)[C@@H]1C(=O)O [SCY-078]
AUC(0-t), ng·h/mL: 53000

* * *

Assay: Plasma, vaginal secretion and vaginal tissue exposure after oral administration in mice
Format: in vivo
Conditions: female, CD-1, mouse, vaginal tissue, oral, repeat-dosing, read-out: accumulation in vaginal tissue relative to plasma

compound: CC(C)[C@@H](C)[C@@]1(C)CC[C@]2(C)[C@H]3CC[C@@H]4[C@@]5(COC[C@]4(C)[C@@H](OC[C@](C)(N)C(C)(C)C)[C@H](n4ncnc4-c4ccncc4)C5)C3=CC[C@@]2(C)[C@@H]1C(=O)O [SCY-078]
Kp: > 10

* * *

Experiment: Plasma, vaginal secretion and vaginal tissue exposure after oral administration in mice
Format: in vivo
Conditions: female, CD-1, mouse, plasma, po, oral gavage, BID repeat-dose 80/40 mg/kg (Days 1-4), read-out: AUC0-24 Plasma
outcome.measure: AUC(0-t) (µg·h/mL)

molecule: CC(C)[C@@H](C)[C@@]1(C)CC[C@]2(C)[C@H]3CC[C@@H]4[C@@]5(COC[C@]4(C)[C@@H](OC[C@](C)(N)C(C)(C)C)[C@H](n4ncnc4-c4ccncc4)C5)C3=CC[C@@]2(C)[C@@H]1C(=O)O [SCY-078]
unit.info: µg·h/mL
numeric.result: 143

* * *

Assay: Plasma, vaginal secretion and vaginal tissue exposure after oral administration in mice
Format: in vivo
Details: female, CD-1, mouse, vaginal secretions, po, BID repeat dose regimen (Days 1-4), read-out: AUC0-24 in vaginal secretions, range over doses

smiles.record: CC(C)[C@@H](C)[C@@]1(C)CC[C@]2(C)[C@H]3CC[C@@H]4[C@@]5(COC[C@]4(C)[C@@H](OC[C@](C)(N)C(C)(C)C)[C@H](n4ncnc4-c4ccncc4)C5)C3=CC[C@@]2(C)[C@@H]1C(=O)O
AUC(0-t): 4320 to 120000 ng·h/mL
